Attribution: PubChem BioAssay (NCATS)

TEST_DETAILS: Quantitative highthroughput screen to assess conditional lethalithy of NOMO1 cells grown in RPMI1640 with untreated serum (RPMI+s) (AID 1963876); also: nearly all actives have a fitted effect of over 35% in size
RUN_CONDITIONS: NOMO1 AML cells in RPMI+serum, CellTiter-Glo viability, 48 h; series mostly up to 45.8 µM
Records with an inconclusive call do not appear. The source made the active and inactive calls. Calls follow the shape of the dose curve; as a rule, active = well fitted cell-killing curve with a large enough effect; inconclusive = small, poorly fitted or top-dose-only effect; inactive = flat fitted curve, though single readings scatter.
# valid calls are yes = active, no = inactive; nothing else

Lab log entry: CN1CCC(=C2c3ccccc3C=Cc3ccccc32)CC1 — outcome as called in the assay? no

Lab log entry: COc1ncc(-c2ccc3c(Nc4cc(Oc5cc(F)cc(F)c5)cc(C(=O)O)c4)c(S(=O)(=O)NC4CC4)cnc3c2)c(OC)n1 — outcome as called in the assay? no

Lab log entry: CCCc1nc2c(C)cc(-c3nc4ccccc4n3C)cc2n1Cc1ccc(-c2ccccc2C(=O)O)cc1 — outcome as called in the assay? no

Lab log entry: COc1nc(-c2ccc3c(c2)OCO3)n(-c2ccc(NC(=O)CSc3ccccc3)cc2)n1 — outcome as called in the assay? yes

Lab log entry: O=C(Nc1cccc(Cl)c1)Nc1ncc(CCNc2ncnc3ccsc23)s1 — outcome as called in the assay? yes

Lab log entry: CC(C)c1cnn2c(NCc3ccccc3)cc(NCCCCCCN)nc12 — outcome as called in the assay? no

Lab log entry: COc1cccc(-c2ccc(NC(=O)C3=C(C(=O)O)CCC3)c(F)c2)c1 — outcome as called in the assay? no

Lab log entry: CCOc1cc2ncc(C#N)c(Nc3ccc(OCc4ccccn4)c(Cl)c3)c2cc1NC(=O)C=CCN(C)C — outcome as called in the assay? yes

Lab log entry: CN1[C@@H]2CCC[C@@H]1CC(NC(=O)c1nn(C)c3ccccc13)C2 (stereo not given in full) — outcome as called in the assay? no

Lab log entry: COc1ccc(C(=O)CC2(O)C(=O)Nc3c(Cl)ccc(Cl)c32)cc1 (stereo not given) — outcome as called in the assay? yes

Lab log entry: CC(=O)N[C@@H]1[C@H](O[C@@H]2c3ccc(c(Cl)c3)Oc3cc4cc(c3O[C@H]3O[C@H](CO)[C@@H](O)[C@H](O)[C@H]3NC(=O)CCCCCCCC(C)C)Oc3ccc(cc3Cl)C[C@H]3NC(=O)[C@H](N)c5ccc(O)c(c5)Oc5cc(O)cc(c5)[C@H](NC3=O)C(=O)N[C@H]4C(=O)N[C@H]3C(=O)N[C@@H]2C(=O)N[C@@H](C(=O)O)c2cc(O)cc(O[C@H]4O[C@H](CO)[C@@H](O)[C@H](O)[C@H]4O)c2-c2cc3ccc2O)O[C@H](CO)[C@@H](O)[C@@H]1O — outcome as called in the assay? no

Lab log entry: Nc1ccn(C2CO[C@H](CO)O2)c(=O)n1 (stereo not given in full) — outcome as called in the assay? no

Lab log entry: O=c1n(CCCN2CCN(c3cccc(Cl)c3)CC2)nc2ccccn12 — outcome as called in the assay? no

Lab log entry: CC(=O)O[C@H]1C(=O)[C@@]2(C)C([C@H](OC(=O)c3ccccc3)[C@]3(O)C[C@H](OC(=O)[C@H](O)[C@@H](NC(=O)c4ccccc4)c4ccccc4)C(C)=C1C3(C)C)[C@]1(OC(C)=O)CO[C@@H]1C[C@@H]2O (stereo not given in full) — outcome as called in the assay? yes

Lab log entry: COc1cccc2c1CCCC2CCCN1CCN(C2CCCCC2)CC1 (stereo not given) — outcome as called in the assay? yes
